Origin of measurements: patent US10750743B2

Item-by-item account of Plant response rating (0 to 100 scale), Kochia
test system: kochia (Kochia scoparia); assay: Test A preemergence, directed soil spray, visual injury rating; format: in vivo; settings: 125 g ai/ha, 0 is no effect, 100 is complete control
Output spec: single numeric token, no unit.

A selection of reference data follows.
Cc1nc2c(-c3c(O)c(C)nn(C)c3=O)cccc2s1 [Compound 27] : 0
Cc1cc2c(-c3c(O)c(C)nn(C)c3=O)ccc(Cl)c2o1 [Compound 45] : 0
CC(=O)Oc1c(C)nn(C)c(=O)c1-c1cncc2ccccc12 [Compound 8] : 0

For the next question, use this molecule.
Qu. // query Plant response rating (0 to 100 scale), Kochia value for entry CCC(=O)Oc1c(C)nn(C)c(=O)c1-c1c(C)ccc2cc(C)oc12 [Compound 22]
Ans. 90

###

Item-by-item account of Plant response rating (0 to 100 scale), Pigweed
system: pigweed (Amaranthus retroflexus); assay: Test A preemergence, directed soil spray, visual injury rating; format: in vivo; conditions: 31 g ai/ha, 0 is no effect, 100 is complete control
Output spec: single numeric token, no unit.

A selection of reference data follows.
CC(=O)Oc1c(C)nn(C)c(=O)c1-c1ccc(Cl)c2oc(C)cc12 : 0
Cc1cc2c(Cl)ccc(-c3c(OC(=O)c4ccccc4)c(C)nn(C)c3=O)c2o1 : 0
Cc1nn(C)c(=O)c(-c2c(Br)ccc3c2cnn3C)c1O : 0

Qu. // query Plant response rating (0 to 100 scale), Pigweed value for entry "CCC(=O)Oc1c(C)nn(C)c(=O)c1-c1c(C)ccc2cc(C)oc12"
Ans. 100

Qu. Proceed to "COC(=O)Oc1c(C)nn(C)c(=O)c1-c1c(C)ccc2cc(C)oc12"
Ans. 30

###

tested on: kochia (Kochia scoparia); assay: Test A postemergence application, visual injury rating; format: in vivo; details: 125 g ai/ha, 0 to 100 scale, 0 no effect, 100 complete control
Item-by-item account of Kochia plant response rating
Output spec: single numeric token, no unit.

CC(=O)Oc1c(C)nn(C)c(=O)c1-c1cncc2ccccc12 [Compound 8] : 30
Cc1nn(C)c(=O)c(-c2ccc(Cl)c3ccoc23)c1O [Compound 56] : 0
Cc1cc2c(Cl)ccc(-c3c(OC(=O)c4ccccc4)c(C)nn(C)c3=O)c2o1 [Compound 39] : 0
COC(=O)Oc1c(C)nn(C)c(=O)c1-c1ccc(Cl)c2oc(C)cc12 [Compound 53] : 0
Cc1nn(C)c(=O)c(-c2c(C)sc3ncccc23)c1O [Compound 14] : 0

Qu. // query Kochia plant response rating value for entry CCC(=O)Oc1c(C)nn(C)c(=O)c1-c1c(Br)ccc2c1cnn2C [Compound 64]
Ans. 0

Qu. Proceed to Cc1nn(C)c(=O)c(-c2c(Br)ccc3c2cnn3C)c1O [Compound 65]
Ans. 0

Qu. Proceed to CC(=O)Oc1c(C)nn(C)c(=O)c1-c1ccc(Cl)c2cc(C)oc12 [Compound 42]
Ans. 0

Qu. Proceed to COc1ncc(-c2c(O)c(C)nn(C)c2=O)c2ccccc12 [Compound 16]
Ans. 70

Qu. Proceed to Cn1nc(Cl)c(O)c(-c2ccc(F)c3ccoc23)c1=O [Compound 70]
Ans. 90

Qu. Proceed to CC(=O)Oc1c(C)nn(C)c(=O)c1-c1ccc(Cl)c2ccsc12 [Compound 51]
Ans. 90

Qu. Proceed to CCC(=O)Oc1c(C)nn(C)c(=O)c1-c1cccc2cc(C)oc12 [Compound 26]
Ans. 20

Qu. Proceed to CCc1sc2ncccc2c1-c1c(OC(=O)OC(C)C)c(C)nn(C)c1=O [Compound 20]
Ans. 0

Qu. Proceed to Cc1nn(C)c(=O)c(-c2cccc3scnc23)c1O [Compound 1]
Ans. 0

Qu. Proceed to CCOC(=O)Oc1c(C)nn(C)c(=O)c1-c1c(C)sc2ncc(C)cc12 [Compound 2]
Ans. 30

###

tested on: barnyardgrass (Echinochloa crus-galli); experiment: Test A preemergence, directed soil spray, visual injury rating; assay type: in vivo; conditions: 125 g ai/ha, 0 is no effect, 100 is complete control
assay-endpoint: Plant response rating (0 to 100 scale), Barnyardgrass
Output spec: single numeric token, no unit.

Cc1nn(C)c(=O)c(-c2cccc3scnc23)c1O [Compound 1] : 0

Qu. // query Plant response rating (0 to 100 scale), Barnyardgrass value for entry Cc1cnc2sc(C)c(-c3c(OC(=O)C4CC4)c(C)nn(C)c3=O)c2c1 [Compound 9]
Ans. 0

Qu. Proceed to Cc1cc2c(Cl)ccc(-c3c(O)c(C)nn(C)c3=O)c2o1 [Compound 43]
Ans. 30

Qu. Proceed to Cc1nn(C)c(=O)c(-c2c(Br)ccc3c2cnn3C)c1O [Compound 65]
Ans. 0

Qu. Proceed to Cc1cnc2sc(C)c(-c3c(OC(=O)OC(C)C)c(C)nn(C)c3=O)c2c1 [Compound 6]
Ans. 0

###

tested on: kochia (Kochia scoparia); assay: Test A preemergence, directed soil spray, visual injury rating; type: in vivo; details: 500 g ai/ha, 0 is no effect, 100 is complete control
Item-by-item account of Plant response rating (0 to 100 scale), Kochia

CCC(=O)Oc1c(C)nn(C)c(=O)c1-c1ccc(Cl)c2oc(C)cc12 : 0
CCc1sc2ncccc2c1-c1c(OC(=O)OC(C)C)c(C)nn(C)c1=O : 0
Cc1cnc2sc(C)c(-c3c(O)c(C)nn(C)c3=O)c2c1 : 20
CCOC(=O)Oc1c(C)nn(C)c(=O)c1-c1c(C)sc2ncccc12 : 0
CCc1sc2ncccc2c1-c1c(O)c(C)nn(C)c1=O : 0

Qu. // query Plant response rating (0 to 100 scale), Kochia value for entry "Cc1cnc2sc(C)c(-c3c(OC(=O)OC(C)C)c(C)nn(C)c3=O)c2c1"
Ans. 50

Qu. Proceed to "CCc1sc2ncccc2c1-c1c(OC(=O)C2CC2)c(C)nn(C)c1=O"
Ans. 0

Qu. Proceed to "CC(=O)Oc1c(C)nn(C)c(=O)c1-c1cncc2ccccc12"
Ans. 0

Qu. Proceed to "Cc1nn(C)c(=O)c(-c2cccc3sccc23)c1O"
Ans. 40

Qu. Proceed to "Cc1nn(C)c(=O)c(-c2cccc3scnc23)c1O"
Ans. 0

Qu. Proceed to "CCOC(=O)Oc1c(C)nn(C)c(=O)c1-c1c(C)sc2ncc(C)cc12"
Ans. 60

###

system: pigweed (Amaranthus retroflexus); assay: Test A preemergence, directed soil spray, visual injury rating; format: in vivo; conditions: 500 g ai/ha, 0 is no effect, 100 is complete control
assay-endpoint: Plant response rating (0 to 100 scale), Pigweed
Output spec: single numeric token, no unit.

Cc1cnc2sc(C)c(-c3c(OC(=O)OC(C)C)c(C)nn(C)c3=O)c2c1 : 70

Qu. // query Plant response rating (0 to 100 scale), Pigweed value for entry "CCC(=O)Oc1c(C)nn(C)c(=O)c1-c1c(C)ccc2sccc12"
Ans. 100

Qu. Proceed to "Cc1cnc2sc(C)c(-c3c(O)c(C)nn(C)c3=O)c2c1"
Ans. 80

Qu. Proceed to "CCC(=O)Oc1c(C)nn(C)c(=O)c1-c1ccc(Cl)c2oc(C)cc12"
Ans. 100

Qu. Proceed to "Cc1nn(C)c(=O)c(-c2c(C)sc3ncccc23)c1O"
Ans. 0

Qu. Proceed to "Cc1ccc2ccoc2c1-c1c(O)c(C)nn(C)c1=O"
Ans. 100

###

test system: kochia (Kochia scoparia); assay: Test A preemergence, directed soil spray, visual injury rating; format: in vivo; details: 125 g ai/ha, 0 is no effect, 100 is complete control
assay-endpoint: Plant response rating (0 to 100 scale), Kochia
Output spec: single numeric token, no unit.

CC(=O)Oc1c(C)nn(C)c(=O)c1-c1ccc(Cl)c2sccc12 : 0
Cc1nn(C)c(=O)c(-c2ccc(Cl)c3sccc23)c1O : 20
CC(=O)Oc1c(C)nn(C)c(=O)c1-c1ccc(Cl)c2oc(C)cc12 : 0
CCC(=O)Oc1c(C)nn(C)c(=O)c1-c1c(Br)ccc2c1cnn2C : 0
COc1ncc(-c2c(O)c(C)nn(C)c2=O)c2ccccc12 : 40

Qu. // query Plant response rating (0 to 100 scale), Kochia value for entry "Cc1nn(C)c(=O)c(-c2ccc(Cl)c3ccoc23)c1O"
Ans. 0

Qu. Proceed to "COC(=O)Oc1c(C)nn(C)c(=O)c1-c1ccc(Cl)c2cc(C)oc12"
Ans. 0

Qu. Proceed to "COC(=O)Oc1c(C)nn(C)c(=O)c1-c1ccc(Cl)c2sccc12"
Ans. 20

Qu. Proceed to "Cn1ncc(O)c(-c2cccc3cnccc23)c1=O"
Ans. 0

Qu. Proceed to "Cc1cc2c(-c3c(O)c(C)nn(C)c3=O)c(C)ccc2s1"
Ans. 40

Qu. Proceed to "CC(=O)Oc1c(Cl)nn(C)c(=O)c1-c1nccc2ccccc12"
Ans. 0

Qu. Proceed to "CC(=O)Oc1c(C)nn(C)c(=O)c1-c1ccc(Cl)c2cc(C)oc12"
Ans. 0

Qu. Proceed to "Cc1cc2c(-c3c(OC(=O)c4ccccc4)c(C)nn(C)c3=O)ccc(Cl)c2o1"
Ans. 0
